Recorded MIC for the following compounds
test system: Clostridioides difficile; assay: Antibacterial activity against Clostridium difficile 8260 incubated for 46 hrs in anaerobic condition by CLSI-based broth microdilution assay; format: functional

mol: CCOC(=O)COc1c(Cl)c(CC)c(C(=O)O[C@@H]2[C@@H](O)[C@@H](OC)[C@@H](OC/C3=C\C=C\C[C@H](O)/C(C)=C/[C@H](CC)[C@@H](O[C@@H]4OC(C)(C)[C@@H](OC(=O)C(C)C)[C@H](O)[C@@H]4O)/C(C)=C/C(C)=C/C[C@@H]([C@@H](C)O)OC3=O)O[C@H]2C)c(OCC(=O)OCC)c1Cl
result-qualifier: =
MIC (µg/mL): 16

mol: CCc1c(Cl)c(OCC(=O)N2CCN(c3cc4c(cc3F)c(=O)c(C(=O)O)cn4C3CC3)CC2)c(Cl)c(O)c1C(=O)O[C@@H]1[C@@H](O)[C@@H](OC)[C@@H](OC/C2=C\C=C\C[C@H](O)/C(C)=C/[C@H](CC)[C@@H](O[C@@H]3OC(C)(C)[C@@H](OC(=O)C(C)C)[C@H](O)[C@@H]3O)/C(C)=C/C(C)=C/C[C@@H]([C@@H](C)O)OC2=O)O[C@H]1C
result-qualifier: =
MIC (µg/mL): 0.03

mol: CCc1c(Cl)c(OCCCn2cc(CCN3CCC(N)CC3)nn2)c(Cl)c(OCCCn2cc(CCN3CCC(N)CC3)nn2)c1C(=O)O[C@@H]1[C@@H](O)[C@@H](OC)[C@@H](OC/C2=C\C=C\C[C@H](O)/C(C)=C/[C@H](CC)[C@@H](O[C@@H]3OC(C)(C)[C@@H](OC(=O)C(C)C)[C@H](O)[C@@H]3O)/C(C)=C/C(C)=C/C[C@@H]([C@@H](C)O)OC2=O)O[C@H]1C
result-qualifier: >
MIC (µg/mL): 16

###

assay: Aqueous solubility of the compound in phosphate buffer at pH 7 after 5 hrs by UHPLC analysis; type: physicochemical

mol: CCc1c(Cl)c(OCC(=O)N2CCC(O)CC2)c(Cl)c(O)c1C(=O)O[C@@H]1[C@@H](O)[C@@H](OC)[C@@H](OC/C2=C\C=C\C[C@H](O)/C(C)=C/[C@H](CC)[C@@H](O[C@@H]3OC(C)(C)[C@@H](OC(=O)C(C)C)[C@H](O)[C@@H]3O)/C(C)=C/C(C)=C/C[C@@H]([C@@H](C)O)OC2=O)O[C@H]1C
result-qualifier: =
solubility at 5 h, µg/mL: 180
//
mol: CCc1c(Cl)c(OCC(=O)N2CCC(O)CC2)c(Cl)c(OCC(=O)N2CCC(O)CC2)c1C(=O)O[C@@H]1[C@@H](O)[C@@H](OC)[C@@H](OC/C2=C\C=C\C[C@H](O)/C(C)=C/[C@H](CC)[C@@H](O[C@@H]3OC(C)(C)[C@@H](OC(=O)C(C)C)[C@H](O)[C@@H]3O)/C(C)=C/C(C)=C/C[C@@H]([C@@H](C)O)OC2=O)O[C@H]1C
result-qualifier: =
solubility at 5 h, µg/mL: 213
//
mol: CCc1c(Cl)c(OCCCn2cc(COCCOCCOCCOCCOCCC(=O)O)nn2)c(Cl)c(O)c1C(=O)O[C@@H]1[C@@H](O)[C@@H](OC)[C@@H](OC/C2=C\C=C\C[C@H](O)/C(C)=C/[C@H](CC)[C@@H](O[C@@H]3OC(C)(C)[C@@H](OC(=O)C(C)C)[C@H](O)[C@@H]3O)/C(C)=C/C(C)=C/C[C@@H]([C@@H](C)O)OC2=O)O[C@H]1C
result-qualifier: >
solubility at 5 h, µg/mL: 2000
//
mol: CCc1c(Cl)c(OCCOCCOCCOCCOCCOCCOC)c(Cl)c(OCCOCCOCCOCCOCCOCCOC)c1C(=O)O[C@@H]1[C@@H](O)[C@@H](OC)[C@@H](OC/C2=C\C=C\C[C@H](O)/C(C)=C/[C@H](CC)[C@@H](O[C@@H]3OC(C)(C)[C@@H](OC(=O)C(C)C)[C@H](O)[C@@H]3O)/C(C)=C/C(C)=C/C[C@@H]([C@@H](C)O)OC2=O)O[C@H]1C
result-qualifier: =
solubility at 5 h, µg/mL: 504
//
mol: CCc1c(Cl)c(OCC(=O)N2CCNCC2)c(Cl)c(O)c1C(=O)O[C@@H]1[C@@H](O)[C@@H](OC)[C@@H](OC/C2=C\C=C\C[C@H](O)/C(C)=C/[C@H](CC)[C@@H](O[C@@H]3OC(C)(C)[C@@H](OC(=O)C(C)C)[C@H](O)[C@@H]3O)/C(C)=C/C(C)=C/C[C@@H]([C@@H](C)O)OC2=O)O[C@H]1C
result-qualifier: =
solubility at 5 h, µg/mL: 81
//
mol: CCc1c(Cl)c(O)c(Cl)c(O)c1C(=O)O[C@@H]1[C@@H](O)[C@@H](OC)[C@@H](OC/C2=C\C=C\C[C@H](O)/C(C)=C/[C@H](CC)[C@@H](O[C@@H]3OC(C)(C)[C@@H](OC(=O)C(C)C)[C@H](O)[C@@H]3O)/C(C)=C/C(C)=C/C[C@@H]([C@@H](C)O)OC2=O)O[C@H]1C
result-qualifier: =
solubility at 5 h, µg/mL: 84
//
mol: CCc1c(Cl)c(OCCCn2cc(CCN3CCC(N)CC3)nn2)c(Cl)c(OCCCn2cc(CCN3CCC(N)CC3)nn2)c1C(=O)O[C@@H]1[C@@H](O)[C@@H](OC)[C@@H](OC/C2=C\C=C\C[C@H](O)/C(C)=C/[C@H](CC)[C@@H](O[C@@H]3OC(C)(C)[C@@H](OC(=O)C(C)C)[C@H](O)[C@@H]3O)/C(C)=C/C(C)=C/C[C@@H]([C@@H](C)O)OC2=O)O[C@H]1C
result-qualifier: =
solubility at 5 h, µg/mL: 451

###

Listing of entries alongside the reported MIC.
tested on: Clostridioides difficile; assay: Antibacterial activity against Clostridium difficile 8260 incubated for 46 hrs in anaerobic condition by CLSI-based broth microdilution assay; format: functional

mol: CCc1c(Cl)c(OCC(=O)N2CCNCC2)c(Cl)c(O)c1C(=O)O[C@@H]1[C@@H](O)[C@@H](OC)[C@@H](OC/C2=C\C=C\C[C@H](O)/C(C)=C/[C@H](CC)[C@@H](O[C@@H]3OC(C)(C)[C@@H](OC(=O)C(C)C)[C@H](O)[C@@H]3O)/C(C)=C/C(C)=C/C[C@@H]([C@@H](C)O)OC2=O)O[C@H]1C
target-entity: Clostridioides difficile
result-qualifier: =
MIC (µg/mL): 0.03
//
mol: CCc1c(Cl)c(Oc2nncnn2)c(Cl)c(Oc2nncnn2)c1C(=O)O[C@@H]1[C@@H](O)[C@@H](OC)[C@@H](OC/C2=C\C=C\C[C@H](O)/C(C)=C/[C@H](CC)[C@@H](O[C@@H]3OC(C)(C)[C@@H](OC(=O)C(C)C)[C@H](O)[C@@H]3O)/C(C)=C/C(C)=C/C[C@@H]([C@@H](C)O)OC2=O)O[C@H]1C
target-entity: Clostridioides difficile
result-qualifier: =
MIC (µg/mL): 0.12
//
mol: CO[C@H]1/C=C/O[C@@]2(C)Oc3c(C)c(O)c4c(O)c(c(/C=N/N5CCN(C)CC5)c(O)c4c3C2=O)NC(=O)/C(C)=C\C=C\[C@H](C)[C@H](O)[C@@H](C)[C@@H](O)[C@@H](C)[C@H](OC(C)=O)[C@@H]1C
target-entity: Clostridioides difficile
result-qualifier: >
MIC (µg/mL): 16

These entries and their values trace back to ChEMBL document CHEMBL4665898.
